The reported numbers originate from patent US20250277012A1.

Molecular target: UniProt:Q9NP59
Experiment: FPN activity assay: ferroportin-GFP internalization/degradation in HEK293 cells
Type: cell-based
Parameters: expressed in transfected cells
Conditions: ferroportin-GFP HEK293 cells, at least 18 hours; read-out: FPN IC50
Positions of bridges follow the written chain, without caps; N, C: chain ends. Non-standard residues stand in square brackets, D forms with d. Residues, ends and D or L forms follow the SMILES beside them. Groups on a side chain read outwards from the residue. *: point of attachment. C18 diacid = O=C(O)CCCCCCCCCCCCCCCCC(=O)*; Dip = N[C@H](C(=O)O)C(c1ccccc1)c1ccccc1; Palmitoyl = CCCCCCCCCCCCCCCC(=O)*; β3hF = N[C@H](CC(=O)O)Cc1ccccc1; Isovaleryl = CC(C)CC(=O)*; hCys = N[C@@H](CCS)C(=O)O; AEEA = NCCOCCOCC(=O)O; Ahx = NCCCCCC(=O)O
RESULT_TYPE: DC50

Check out these entries, answers already filled in.
1. CCCCCCCCCCCCCCCC(=O)NCCCCCC(=O)NCCCC[C@H](NC(=O)[C@@H](NC(=O)[C@@H]1CCSSC[C@H](N)C(=O)N[C@@H](C(C)C)C(=O)N[C@@H](CCC(=O)O)C(=O)N[C@@H]([C@@H](C)O)C(=O)N[C@@H](Cc2c[nH]cn2)C(=O)N[C@@H](C(c2ccccc2)c2ccccc2)C(=O)N2CCC[C@H]2C(=O)N1)[C@@H](C)CC)C(=O)N[C@H](CC(N)=O)Cc1ccccc1 [Compd 17] (H-CVETH[Dip]P[hCys]IK([Ahx-Palmitoyl])[β3hF]-NH2; disulfide 1-8) :: 100 to 500 nM
2. CC(C)CC(=O)N[C@@H](CCC(=O)O)C(=O)N[C@H](C(=O)N[C@@H](Cc1c[nH]cn1)C(=O)N[C@H](C(=O)N1CCC[C@H]1C(=O)N[C@H]1CSSC[C@@H](C(=O)N[C@H](CCCCN)C(=O)N[C@H](CC(=O)N[C@@H](CCCCNC(=O)COCCOCCNC(=O)COCCOCCNC(=O)CCCCCNC(=O)CCCCCCCCCCCCCCCCC(=O)O)C(=O)N[C@H](CCCCN)C(N)=O)Cc2ccccc2)NC1=O)C(c1ccccc1)c1ccccc1)[C@@H](C)O [Compd 26] (Isovaleryl-ETH[Dip]PCC[dK][β3hF]K([AEEA-AEEA-Ahx-C18 diacid])[dK]-NH2; disulfide 6-7) :: 10 to 100 nM
3. CCCCCCCCCCCCCCCC(=O)NCCCCCC(=O)NCCCC[C@H](NC(=O)C[C@H](Cc1ccccc1)NC(=O)[C@@H]1CSSCC[C@H](NC(=O)CC(C)C)C(=O)N[C@@H]([C@@H](C)O)C(=O)N[C@@H](Cc2cnc[nH]2)C(=O)N[C@@H](C(c2ccccc2)c2ccccc2)C(=O)N2CCC[C@H]2C(=O)N[C@@H](C)C(=O)N[C@@H]([C@@H](C)CC)C(=O)N1)C(=O)N[C@H](CCCCN)C(N)=O [compound 110] (Isovaleryl-[hCys]TH[Dip]PAIC[β3hF]K([Ahx-Palmitoyl])[dK]-NH2; disulfide 1-8) :: 1 to 10 nM

Okay, now this compound:
**Query** Annotate the compound CCCCCCCCCCCCCCCC(=O)NCCCCCC(=O)NCCCC[C@H](NC(=O)C[C@H](Cc1ccccc1)NC(=O)[C@@H](CCCCN)NC(=O)[C@@H](NC(=O)[C@@H]1CSSC[C@H](NC(=O)[C@H](Cc2c[nH]cn2)NC(=O)[C@@H](NC(=O)[C@H](CCC(=O)O)NC(=O)CC(C)C)[C@@H](C)O)C(=O)N2CCC[C@H]2C(=O)N1)[C@@H](C)CC)C(=O)N[C@H](CCCCN)C(N)=O [Compd 3] (Isovaleryl-ETHCPCI[dK][β3hF]K([Ahx-Palmitoyl])[dK]-NH2; disulfide 4-6) with its measured DC50.
**Result** 10 to 100 nM

###

Biological target: ferroportin (Homo sapiens)
Sequence (Q9NP59 1-571): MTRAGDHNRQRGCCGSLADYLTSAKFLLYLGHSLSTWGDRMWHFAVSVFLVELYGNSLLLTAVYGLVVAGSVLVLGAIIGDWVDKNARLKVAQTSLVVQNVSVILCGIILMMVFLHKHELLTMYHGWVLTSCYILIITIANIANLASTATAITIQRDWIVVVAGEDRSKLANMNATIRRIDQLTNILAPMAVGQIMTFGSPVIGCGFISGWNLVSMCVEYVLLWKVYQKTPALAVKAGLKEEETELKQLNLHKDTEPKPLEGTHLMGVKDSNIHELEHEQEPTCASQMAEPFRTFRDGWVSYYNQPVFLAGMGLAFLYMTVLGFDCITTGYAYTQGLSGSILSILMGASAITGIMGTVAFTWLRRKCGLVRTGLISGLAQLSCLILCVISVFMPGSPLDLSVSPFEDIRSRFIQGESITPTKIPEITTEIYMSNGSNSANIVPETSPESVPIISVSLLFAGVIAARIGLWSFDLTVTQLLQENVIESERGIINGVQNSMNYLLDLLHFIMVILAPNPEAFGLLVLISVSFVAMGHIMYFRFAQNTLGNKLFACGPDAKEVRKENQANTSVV
Assay: FPN activity assay: ferroportin-GFP internalization/degradation in HEK293 cells
Format: cell-based
Parameters: expressed in transfected cells
Details: ferroportin-GFP HEK293 cells, at least 18 hours; read-out: FPN IC50
Starred links: 1 amine or outer side, 2 acyl side, 3 side chain; linkers in the order of their positions; H or OH if unused. Positions of bridges follow the written chain, without caps; N, C: chain ends. Non-standard residues stand in square brackets, D forms with d. Residues, ends and D or L forms follow the SMILES beside them. Groups on a side chain read outwards from the residue. *: point of attachment. C18 diacid = O=C(O)CCCCCCCCCCCCCCCCC(=O)*; Dip = N[C@H](C(=O)O)C(c1ccccc1)c1ccccc1; γGlu = O=C(O)[C@H](CCC(=O)[*:2])N[*:1]; Palmitoyl = CCCCCCCCCCCCCCCC(=O)*; β3hF = N[C@H](CC(=O)O)Cc1ccccc1; Isovaleryl = CC(C)CC(=O)*; hCys = N[C@@H](CCS)C(=O)O; AEEA = NCCOCCOCC(=O)O; Ahx = NCCCCCC(=O)O
RESULT_TYPE: DC50

Check out these entries, answers already filled in.
1. CCCCCCCCCCCCCCCC(=O)NCCCCCC(=O)NCCCC[C@H](NC(=O)[C@@H](NC(=O)[C@@H]1CSSCC[C@H](NC(C)=O)C(=O)N[C@@H](CCC(=O)O)C(=O)N[C@@H]([C@@H](C)O)C(=O)N[C@@H](Cc2c[nH]cn2)C(=O)N[C@@H](C(c2ccccc2)c2ccccc2)C(=O)N2CCC[C@H]2C(=O)N1)[C@@H](C)CC)C(=O)N[C@H](CC(N)=O)Cc1ccccc1 [Compd 12] (Ac-[hCys]ETH[Dip]PCIK([Ahx-Palmitoyl])[β3hF]-NH2; disulfide 1-7) :: 100 to 500 nM
2. CC[C@H](C)[C@@H]1NC(=O)[C@@H](NC(=O)[C@@H]2CCCN2C(=O)[C@@H](NC(=O)[C@H](Cc2c[nH]cn2)NC(=O)[C@@H](NC(=O)[C@H](CCC(=O)O)NC(=O)CC(C)C)[C@@H](C)O)C(c2ccccc2)c2ccccc2)CSSC[C@@H](C(N)=O)NC(=O)C[C@H](Cc2ccccc2)NC(=O)[C@H](CCCCNC(=O)COCCOCCNC(=O)COCCOCCNC(=O)CC[C@H](NC(=O)CCCCCCCCCCCCCCCCC(=O)O)C(=O)O)NC1=O [Compd 32] (Isovaleryl-ETH[Dip]PCIK([AEEA-AEEA-γGlu-C18 diacid])[β3hF]C-NH2; disulfide 6-10) :: 10 to 100 nM
3. CCCCCCCCCCCCCCCC(=O)NCCCCCC(=O)NCCCC[C@H](NC(=O)[C@@H]1CSSC[C@H](NC(=O)[C@@H]2CCCN2C(=O)[C@@H](NC(=O)[C@H](Cc2c[nH]cn2)NC(=O)[C@@H](NC(=O)[C@H](CCC(=O)O)NC(=O)CC(C)C)[C@@H](C)O)C(c2ccccc2)c2ccccc2)C(=O)N1)C(=O)N[C@H](CC(=O)N[C@H](CCCCN)C(N)=O)Cc1ccccc1 [Compd 39] (Isovaleryl-ETH[Dip]PCCK([Ahx-Palmitoyl])[β3hF][dK]-NH2; disulfide 6-7) :: 10 to 100 nM

Okay, now this compound:
**Query** Annotate the compound CC[C@H](C)[C@H](NC(=O)[C@@H]1CSSC[C@H](NC(=O)[C@H](Cc2c[nH]cn2)NC(=O)[C@@H](NC(=O)[C@H](CCC(=O)O)NC(=O)CC(C)C)[C@@H](C)O)C(=O)N2CCC[C@H]2C(=O)N1)C(=O)N[C@@H](CCCCNC(=O)COCCOCCNC(=O)COCCOCCNC(=O)CC[C@H](NC(=O)CCCCCCCCCCCCCCCCC(=O)O)C(=O)O)C(=O)N[C@H](CC(=O)N[C@H](CCCCN)C(N)=O)Cc1ccccc1 [Compd 29] (Isovaleryl-ETHCPCIK([AEEA-AEEA-γGlu-C18 diacid])[β3hF][dK]-NH2; disulfide 4-6) with its measured DC50.
**Result** 100 to 500 nM
